measuredTarget: T1, TNFR1 (Homo sapiens, UniProt P19438)
T1 chain: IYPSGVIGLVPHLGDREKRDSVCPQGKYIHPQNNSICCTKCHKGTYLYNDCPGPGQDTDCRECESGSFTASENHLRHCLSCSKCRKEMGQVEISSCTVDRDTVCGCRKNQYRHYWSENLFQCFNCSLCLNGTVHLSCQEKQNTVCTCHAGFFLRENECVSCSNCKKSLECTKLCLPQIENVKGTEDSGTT
assayText: yeast display SC50
Dear colleague, classification is by apparent Kd (screen), with ranges listed here: I: < 1 nM; II: ≥ 1 nM and < 4 nM; III: ≥ 4 nM

binder: L94E (designed binder) SMEEEVEKAAKEYEKKKKEAIEKHLEKLKAKDKEAAERFLKELEEAAKEYAKDEAKTMSEEEAKRRAKKYKEKVLLSELSEEEQKEIKEAEEKEVRTILKYVEEAAK
qualitativeLabel: III
//
binder: Q84A (designed binder) SMEEEVEKAAKEYEKKKKEAIEKHLEKLKAKDKEAAERFLKELEEAAKEYAKDEAKTMSEEEAKRRAKKYKEKVLLSELSEEEAKEIKEAEEKLVRTILKYVEEAAK
qualitativeLabel: III
//
binder: T97D (designed binder) SMEEEVEKAAKEYEKKKKEAIEKHLEKLKAKDKEAAERFLKELEEAAKEYAKDEAKTMSEEEAKRRAKKYKEKVLLSELSEEEQKEIKEAEEKLVRDILKYVEEAAK
qualitativeLabel: I
//
binder: D53T (designed binder) SMEEEVEKAAKEYEKKKKEAIEKHLEKLKAKDKEAAERFLKELEEAAKEYAKTEAKTMSEEEAKRRAKKYKEKVLLSELSEEEQKEIKEAEEKLVRTILKYVEEAAK
qualitativeLabel: II
//
binder: A55I (designed binder) SMEEEVEKAAKEYEKKKKEAIEKHLEKLKAKDKEAAERFLKELEEAAKEYAKDEIKTMSEEEAKRRAKKYKEKVLLSELSEEEQKEIKEAEEKLVRTILKYVEEAAK
qualitativeLabel: II

Lab note: sort E49R (designed binder) SMEEEVEKAAKEYEKKKKEAIEKHLEKLKAKDKEAAERFLKELEEAAKRYAKDEAKTMSEEEAKRRAKKYKEKVLLSELSEEEQKEIKEAEEKLVRTILKYVEEAAK into the matching apparent Kd (screen) band.
I

Lab note: sort K107F (designed binder) SMEEEVEKAAKEYEKKKKEAIEKHLEKLKAKDKEAAERFLKELEEAAKEYAKDEAKTMSEEEAKRRAKKYKEKVLLSELSEEEQKEIKEAEEKLVRTILKYVEEAAF into the matching apparent Kd (screen) band.
II

Lab note: sort Q84C (designed binder) SMEEEVEKAAKEYEKKKKEAIEKHLEKLKAKDKEAAERFLKELEEAAKEYAKDEAKTMSEEEAKRRAKKYKEKVLLSELSEEECKEIKEAEEKLVRTILKYVEEAAK into the matching apparent Kd (screen) band.
III

Lab note: sort K56E (designed binder) SMEEEVEKAAKEYEKKKKEAIEKHLEKLKAKDKEAAERFLKELEEAAKEYAKDEAETMSEEEAKRRAKKYKEKVLLSELSEEEQKEIKEAEEKLVRTILKYVEEAAK into the matching apparent Kd (screen) band.
II

Lab note: sort K85I (designed binder) SMEEEVEKAAKEYEKKKKEAIEKHLEKLKAKDKEAAERFLKELEEAAKEYAKDEAKTMSEEEAKRRAKKYKEKVLLSELSEEEQIEIKEAEEKLVRTILKYVEEAAK into the matching apparent Kd (screen) band.
I
